- ASSAYED TARGET: UniProt P34976
- TEST DESCRIPTION: In vitro inhibition of ATII induced contractions of the isolated rabbit aorta.
# if value of pKB reaches 8, tag 1.0; if it stays below, tag 0.0

STRUCTURE SMILES STRING: CCCCc1nn(CC(F)(F)F)c(COC)c1Cc1ccc(-c2ccccc2-c2nn[nH]n2)cc1
CATEGORY: 0.0
//
STRUCTURE SMILES STRING: CCCCc1nn(C2CCC2)c(C(=O)O)c1Cc1ccc(-c2ccccc2-c2nn[nH]n2)cc1
CATEGORY: 1.0
//
STRUCTURE SMILES STRING: CCCCc1nn(CC)c(C(=O)O)c1Cc1ccc(-c2ccccc2-c2nn[nH]n2)cc1
CATEGORY: 1.0
//
STRUCTURE SMILES STRING: CCCCc1nn(CC)c(C(=O)NC)c1Cc1ccc(-c2ccccc2-c2nn[nH]n2)cc1
CATEGORY: 0.0
//
STRUCTURE SMILES STRING: CCCCc1nn(C(C)C)c(C(=O)O)c1Cc1ccc(-c2ccccc2-c2nn[nH]n2)cc1
CATEGORY: 1.0
//
STRUCTURE SMILES STRING: CCCCc1c(Cc2ccc(-c3ccccc3-c3nn[nH]n3)cc2)c(COC)nn1CC(F)(F)F
CATEGORY: 0.0
//
STRUCTURE SMILES STRING: CCCCc1nn(CC2CC2)c(C(=O)O)c1Cc1ccc(-c2ccccc2-c2nn[nH]n2)cc1
CATEGORY: 1.0

====

- ASSAYED TARGET: Type-1 angiotensin II receptor (Oryctolagus cuniculus) (UniProt P34976)
- Sequence (whole entry): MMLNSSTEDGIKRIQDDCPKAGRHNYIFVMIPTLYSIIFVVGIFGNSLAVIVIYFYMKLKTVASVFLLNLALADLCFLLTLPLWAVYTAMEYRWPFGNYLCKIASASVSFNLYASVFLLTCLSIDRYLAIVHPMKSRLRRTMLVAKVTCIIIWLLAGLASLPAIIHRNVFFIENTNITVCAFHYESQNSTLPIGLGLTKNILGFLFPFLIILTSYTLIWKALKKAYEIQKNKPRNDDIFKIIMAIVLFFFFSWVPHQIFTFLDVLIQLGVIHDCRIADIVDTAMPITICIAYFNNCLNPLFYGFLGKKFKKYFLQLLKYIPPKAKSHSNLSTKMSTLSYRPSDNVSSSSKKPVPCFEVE
- TEST DESCRIPTION: In vitro inhibition of ATII induced contractions of the isolated rabbit aorta.

STRUCTURE SMILES STRING: CCCCc1n[nH]c(C(=O)O)c1Cc1ccc(-c2ccccc2-c2nn[nH]n2)cc1
pKB: 8.8
//
STRUCTURE SMILES STRING: CCCCc1nn(CC)c(C(=O)OCC)c1Cc1ccc(-c2ccccc2-c2nn[nH]n2)cc1
pKB: 8
//
STRUCTURE SMILES STRING: CCCCc1nn(CC)c(C(=O)O)c1Cc1ccc(-c2ccccc2C(=O)O)cc1
pKB: 8
//
STRUCTURE SMILES STRING: CCCCc1nn(CC(F)(F)F)c(C(=O)O)c1Cc1ccc(-c2ccccc2-c2nn[nH]n2)cc1
pKB: 9.8
//
STRUCTURE SMILES STRING: CCCCc1nn(C)c(C(=O)O)c1Cc1ccc(-c2ccccc2-c2nn[nH]n2)cc1
pKB: 9.8
